# EXPERIMENT DESCRIPTION: Aqueous solubility
# Format: physicochemical
# REPORTED CONDITIONS: thermodynamic from solid; deionized water, 25 °C, 48 h equilibrium
REPORTED METRIC: solubility at 48 h (µg/mL)
Respond with the bare value in µg/mL.

I am curious: what solubility at 48 h value has been reported for `Cc1cc(CNc2cccc(C(=O)OCc3oc(=O)oc3C)c2)ccc1OCc1ccc(F)cc1` ?
1.4

###

# EXPERIMENT DESCRIPTION: Solubility in microemulsion excipients
# Type: physicochemical
# REPORTED CONDITIONS: Maisine oil, oil or lipid, thermodynamic from solid; 25 °C, 72 h; read-out: Solubility in Maisine oil
REPORTED METRIC: solubility at 72 h (µg/mL)
Respond with the bare value in µg/mL.

I am curious: what solubility at 72 h value has been reported for `Cc1cc(CNc2cccc(C(=O)OCc3oc(=O)oc3C)c2)ccc1OCc1ccc(F)cc1` ?
320

###

# EXPERIMENT DESCRIPTION: Solubility in microemulsion excipients
# Assay type: physicochemical
# REPORTED CONDITIONS: Tween 80, organic solvent or mixture, thermodynamic from solid; 25 °C, 72 h; read-out: Solubility in Tween 80
REPORTED METRIC: solubility at 72 h (µg/mL)
Respond with the bare value in µg/mL.

I am curious: what solubility at 72 h value has been reported for `Cc1cc(CNc2cccc(C(=O)OCc3oc(=O)oc3C)c2)ccc1OCc1ccc(F)cc1` ?
9170

###

# EXPERIMENT DESCRIPTION: Solubility in microemulsion excipients
# Type: physicochemical
# REPORTED CONDITIONS: Oleic acid, oil or lipid, thermodynamic from solid; 25 °C, 72 h; read-out: Solubility in Oleic acid
REPORTED METRIC: solubility at 72 h
State the result as a value with its unit after it.

I am curious: what solubility at 72 h value has been reported for `Cc1cc(CNc2cccc(C(=O)OCc3oc(=O)oc3C)c2)ccc1OCc1ccc(F)cc1` ?
920 µg/mL

###

# EXPERIMENT DESCRIPTION: Solubility in microemulsion excipients
# Format: physicochemical
# REPORTED CONDITIONS: Labrafil M, oil or lipid, thermodynamic from solid; 25 °C, 72 h; read-out: Solubility in Labrafil M
REPORTED METRIC: solubility at 72 h (µg/mL)
Respond with the bare value in µg/mL.

I am curious: what solubility at 72 h value has been reported for Cc1cc(CNc2cccc(C(=O)OCc3oc(=O)oc3C)c2)ccc1OCc1ccc(F)cc1 [A190-PD-60] ?
6580

###

# EXPERIMENT DESCRIPTION: Solubility in microemulsion excipients
# Assay type: physicochemical
# REPORTED CONDITIONS: Cremophor EL, organic solvent or mixture, thermodynamic from solid; 25 °C, 72 h; read-out: Solubility in Cremophor EL
REPORTED METRIC: solubility at 72 h (µg/mL)
Respond with the bare value in µg/mL.

I am curious: what solubility at 72 h value has been reported for `Cc1cc(CNc2cccc(C(=O)OCc3oc(=O)oc3C)c2)ccc1OCc1ccc(F)cc1` ?
9050

###

# EXPERIMENT DESCRIPTION: Bioconversion of prodrugs in rat plasma
# Assay type: in vitro ADME
# REPORTED CONDITIONS: Figure 3E; 100 μM prodrug, 37 °C
Listed next: entries and their corresponding Prodrug bioconversion half-life (Rat plasma).
Respond with the bare value in h.

For orientation, consider the following solved cases.
Cc1cc(CNc2cccc(C(=O)OCc3oc(=O)oc3C)c2)ccc1OCc1ccc(F)cc1    0.3
COC(=O)c1cccc(NCc2ccc(OCc3ccc(F)cc3)c(C)c2)c1    9.6
CCOC(=O)c1cccc(NCc2ccc(OCc3ccc(F)cc3)c(C)c2)c1    2.6

# ---- query molecule ----
I am curious: what Prodrug bioconversion half-life (Rat plasma) value has been reported for `Cc1cc(CNc2cccc(C(=O)OC(C)C)c2)ccc1OCc1ccc(F)cc1` ?
6.8

###

# EXPERIMENT DESCRIPTION: Bioconversion of prodrugs in rabbit plasma
# Assay type: in vitro ADME
# REPORTED CONDITIONS: Figure 3E; 100 μM prodrug, 37 °C
Listed next: entries and their corresponding Prodrug bioconversion half-life (Rabbit plasma).
Respond with the bare value in h.

Cc1cc(CNc2cccc(C(=O)OCc3oc(=O)oc3C)c2)ccc1OCc1ccc(F)cc1 [A190-PD-60]    0.5
Cc1cc(CNc2cccc(C(=O)OC(C)C)c2)ccc1OCc1ccc(F)cc1 [A190-PD-154]    1.4
COC(=O)c1cccc(NCc2ccc(OCc3ccc(F)cc3)c(C)c2)c1 [A190-PD-9]    7.2

# ---- query compound ----
I am curious: what Prodrug bioconversion half-life (Rabbit plasma) value has been reported for CCOC(=O)c1cccc(NCc2ccc(OCc3ccc(F)cc3)c(C)c2)c1 [A190-PD-14] ?
8.2

###

# EXPERIMENT DESCRIPTION: Chemical hydrolysis stability in PBS pH 7.4
# Type: physicochemical
# REPORTED CONDITIONS: PBS pH 7.4, 37 °C, 100 μM
Listed next: entries and their corresponding drug remaining at 2 h.
Respond with the bare value in %.

CCOC(=O)c1cccc(NCc2ccc(OCc3ccc(F)cc3)c(C)c2)c1 [A190-PD-14]    10

# ---- query compound ----
I am curious: what drug remaining at 2 h value has been reported for Cc1cc(CNc2cccc(C(=O)OC(C)C)c2)ccc1OCc1ccc(F)cc1 [A190-PD-154] ?
10
